Numbers sourced from patent US12589101B2.

Experiment: Solubility of linker-payloads (LC-MS standard curve, saturated solution)
Format: physicochemical
Details: water, thermodynamic from solid
MEASURED ATTRIBUTE: solubility thermodynamic at 10 min (µg/mL)
Please respond with the number in µg/mL and leave the unit unwritten.

Sample CC(C)[C@H](NC(=O)[C@@H](CCCCNC(=O)COC1CCCCCc2c1nnn2CC1OC2OC3C(CO)OC(OC4C(CO)OC(OC5C(CO)OC(OC6C(CO)OC(OC7C(CO)OC(OC1C(O)C2O)C(O)C7O)C(O)C6O)C(O)C5O)C(O)C4O)C(O)C3O)NC(=O)CCOCCOCCOCCOCCNC(=O)CCC(=O)N1Cc2ccccc2C#Cc2ccccc21)C(=O)N[C@@H](C)C(=O)Nc1ccc2c(c1)[C@@]1(C)CCC[C@](C)(C(=O)NC(=O)[C@@]3(C)CCC[C@]4(C)c5cc(O)ccc5CC[C@@H]34)[C@@H]1CC2 (stereo partly shown) ; solubility thermodynamic at 10 min observed: 48
